# assayed-target: T1, AFP158/HLA-A*02:01 complex (human)
# T1 construct: biotinylated on the BSP by BirA for ELISA and panning; also called biotinylated AFP158/HLA-A*02:01 complex; Bio-AFP158
# measurement-protocol: SPR, scFv-mIgG2aFc from supernatant captured, complex as analyte
// reported kon for each item listed

>  <binder>
AS170036 scFv-mIgG2aFc (Fc fusion, not shown: a dimerising Fc or GST, Camel scFv) QLVLTQPSSVSGTPGQTVTISCAGTSSDVGSENYVSWYRQLPGTAPKLLIYQVNKRASGIADRFSGSKSGNTASMTISGLQSADEADYYCASYRSSDHNIVFGGGTHLTVLGGGGSGGGGSGGGGSAVQLVESGGGLVQPGGSLRLSCTASGFTFSSYAMSWVRQAPGKGLEWVSTINSGTGSPYYADSVKGRFTISRDNAKNTLYLQLNSLKTEDTAMYYCAKNFFDGSWFLGPPAMDYWGKGTLVTISS

>  <kon (M⁻¹ s⁻¹)>
430000

$$$$
>  <binder>
AS170036 VL1VH2 scFv-mIgG2aFc (Fc fusion, not shown: a dimerising Fc or GST) scFv: QSALTQPRSVSGSPGQSVTISCAGTSSDVGSENYVSWYQQHPGKAPKLMIYQVNKRASGVPDRFSGSKSGNTASLTISGLQAEDEADYYCASYRSSDHNIVFGGGTKLTVLGGGGSGGGGSGGGGSEVQLVESGGGLVQPGGSLRLSCTASGFTFSSYAMSWVRQAPGKGLEWVSTINSGTGSPYYADSVKGRFTISRDNSKNTLYLQMNSLRAEDTAMYYCAKNFFDGSWFLGPPAMDYWGQGTLVTVSS

>  <kon (M⁻¹ s⁻¹)>
190000

$$$$
>  <binder>
AS170036 VL1VH1 scFv-mIgG2aFc (Fc fusion, not shown: a dimerising Fc or GST, Humanized) QSALTQPRSVSGSPGQSVTISCAGTSSDVGSENYVSWYQQHPGKAPKLMIYQVNKRASGVPDRFSGSKSGNTASLTISGLQAEDEADYYCASYRSSDHNIVFGGGTKLTVLGGGGSGGGGSGGGGSEVQLVESGGGLVQPGGSLRLSCAASGFTFSSYAMSWVRQAPGKGLEWVSTINSGTGSPYYADSVKGRFTISRDNSKNTLYLQMNSLRAEDTAVYYCAKNFFDGSWFLGPPAMDYWGQGTLVTVSS

>  <kon (M⁻¹ s⁻¹)>
170000

$$$$
>  <binder>
AS170036 VL2VH1 scFv-mIgG2aFc (Fc fusion, not shown: a dimerising Fc or GST) scFv: QSALTQPRSVSGSPGQSVTISCAGTSSDVGSENYVSWYQQHPGKAPKLLIYQVNKRASGIPDRFSGSKSGNTASLTISGLQAEDEADYYCASYRSSDHNIVFGGGTKLTVLGGGGSGGGGSGGGGSEVQLVESGGGLVQPGGSLRLSCAASGFTFSSYAMSWVRQAPGKGLEWVSTINSGTGSPYYADSVKGRFTISRDNSKNTLYLQMNSLRAEDTAVYYCAKNFFDGSWFLGPPAMDYWGQGTLVTVSS

>  <kon (M⁻¹ s⁻¹)>
280000

$$$$
